# credit: patent US12668586B2

biological target: AhR (Homo sapiens); test: AhR inhibitory activity experiment, in vitro assay 1: HepG2-Lucia AhR cells, Lucia luciferase reporter (QUANTI-Luc); conditions: 24 hours incubation at 37° C., Lucia luciferase in supernatant, read-out: AhR inhibitory activity C50
Sequence (P35869 11-848): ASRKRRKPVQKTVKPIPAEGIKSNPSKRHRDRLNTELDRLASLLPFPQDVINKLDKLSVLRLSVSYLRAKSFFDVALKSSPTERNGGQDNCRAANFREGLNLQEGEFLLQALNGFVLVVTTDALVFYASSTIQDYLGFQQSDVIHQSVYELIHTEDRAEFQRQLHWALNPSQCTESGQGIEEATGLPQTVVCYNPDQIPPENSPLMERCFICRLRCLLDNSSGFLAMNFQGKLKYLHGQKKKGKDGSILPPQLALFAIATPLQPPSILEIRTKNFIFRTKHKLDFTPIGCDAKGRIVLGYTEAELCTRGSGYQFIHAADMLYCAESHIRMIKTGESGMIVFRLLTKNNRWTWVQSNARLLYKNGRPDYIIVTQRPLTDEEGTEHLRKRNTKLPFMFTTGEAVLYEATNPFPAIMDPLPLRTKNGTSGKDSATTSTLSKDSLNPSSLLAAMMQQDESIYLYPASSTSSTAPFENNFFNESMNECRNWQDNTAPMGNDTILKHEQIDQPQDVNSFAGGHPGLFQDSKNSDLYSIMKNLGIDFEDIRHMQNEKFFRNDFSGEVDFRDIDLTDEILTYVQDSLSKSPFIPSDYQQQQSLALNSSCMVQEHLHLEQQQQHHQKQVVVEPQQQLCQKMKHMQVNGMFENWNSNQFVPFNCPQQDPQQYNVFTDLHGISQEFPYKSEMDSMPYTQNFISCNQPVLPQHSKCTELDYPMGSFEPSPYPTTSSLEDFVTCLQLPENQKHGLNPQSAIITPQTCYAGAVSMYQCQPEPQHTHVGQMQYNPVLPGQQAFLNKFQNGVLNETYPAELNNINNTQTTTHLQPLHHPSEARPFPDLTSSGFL
pIC50: −log10 of the molar value.
pIC50 listing for selected compounds.

Example results:
{"compound": "C[C@H](NC(=O)c1cc(-c2ccc(Cl)cc2)nc(-c2cnn(C)c2)n1)c1ccc(F)c(Cl)c1 [Compound 31]", "system-name": "AhR (Homo sapiens)", "pIC50": "> 7.30"}
{"compound": "C[C@H](NC(=O)c1cc(-c2ccc(OC(F)(F)F)cc2)nc(-c2cnn(C)c2)n1)c1ccnc(F)c1 [Compound 34]", "system-name": "AhR (Homo sapiens)", "pIC50": "> 7.30"}

[ask] Reported pIC50, compound O=C(N[C@H]1CCc2ncccc21)c1cc(-c2ccc(Cl)cc2)nc(-c2ccnc(F)c2)n1 [Compound 62] : ____
[reply] > 7.30

[ask] Queued: Cn1cc(-c2nc(C(=O)N[C@H]3CCc4cc(F)c(F)cc43)cc(-c3ccc(Cl)cc3)n2)cn1 [Compound 20]
[reply] 6.70 to 7.30

[ask] Same thing, different compound: CC[C@H](NC(=O)c1cc(-c2ccc(Cl)cc2)nc(-c2cnn(C)c2)n1)c1ccc(F)cc1 [Compound 18]
[reply] > 7.30

[ask] Param item: C[C@H](NC(=O)c1cc(-c2ccc(Cl)cc2)nc(-c2cnn(C)c2)n1)c1ccc2ncn(C)c2c1 [Compound 54]
[reply] > 7.30

[ask] Another compound to check: C[C@H](NC(=O)c1cc(-c2ccc(Cl)cc2)nc(-c2ccc(C#N)cc2)n1)c1ccnc(F)c1 [Compound 60]
[reply] < 6.00

[ask] What about Cn1cc(-c2nc(C(=O)N[C@H](c3ccc(F)cc3)C3CC3)cc(-c3ccc(Cl)cc3)n2)cn1 [Compound 19] ?
[reply] > 7.30

[ask] Thanks! And Cn1cc(-c2nc(C(=O)NC3(c4ccc(Cl)cc4)CC3)cc(-c3ccc(Cl)cc3)n2)cn1 [Compound 51] ?
[reply] > 7.30
